The measurements presented in this section are drawn from patent US9163020B2.

Assay: in vivo
Conditions: BALB/c, mouse, po, 100 mg/kg, Cmax, ELF
Recorded metric: Cmax (µM)
Report the value in µM with no unit label.

Would you mind telling me what Cmax value was observed for COc1ncnc(Cn2cc(C(=O)NCCF)c3ncccc32)c1C ?
74

###

Test: in vivo
Details: BALB/c, mouse, po, 50 mg/kg
Recorded metric: AUC(0-inf) (µM·h)
Respond with the bare value in µM·h.

Looking for the measured AUC(0-inf) of COc1ncnc(Cn2cc(C(=O)NCCO)c3ncc(C)cc32)c1C , can you help?
420

###

Assay: in vivo
Conditions: Wistar, rat, in vivo, iv, 0.5 mg/kg
Recorded metric: clearance (mL/min/kg)
Respond with the bare value in mL/min/kg.

Item under review: COc1ncnc(Cn2cc(C(=O)NCCF)c3ncccc32)c1C . Reported clearance?
15.5
